# Test system: Hypothalamus
# EXPERIMENT: Biodistribution in Sprague-Dawley rat brain hypothalamus at 0.3 to 0.8 nmol, iv after 40 mins by gamma counting analysis
# Type: ADME, organism-based
# ASSAY_CONDITIONS: in vivo
REPORTED_METRIC: SUV
Form field (numeric): enter value without unit.

Record O=[11C](NC1CCCC1)Oc1ccc(O)c(-c2ccccc2)c1 . Reported SUV: 1.22

The measured SUV associated with O=[11C](NC1CCCCC1)Oc1ccc(O)c(-c2ccccc2)c1 reads 1.14

Next:
Value of measured SUV for the entry CCCCCCN[11C](=O)Oc1ccc(O)c(-c2ccccc2)c1 : 1.25

# compound NC(=O)c1cccc(-c2cccc(O[11C](=O)NC3CCCCC3)c2)c1 ; its SUV = 0.51

Looking up O=[11C](NC1CCC1)Oc1ccc(O)c(-c2ccccc2)c1 , I found its SUV recorded as 1.48

###

# SYSTEM: Fatty-acid amide hydrolase 1 (Rattus norvegicus)
# Sequence (whole entry): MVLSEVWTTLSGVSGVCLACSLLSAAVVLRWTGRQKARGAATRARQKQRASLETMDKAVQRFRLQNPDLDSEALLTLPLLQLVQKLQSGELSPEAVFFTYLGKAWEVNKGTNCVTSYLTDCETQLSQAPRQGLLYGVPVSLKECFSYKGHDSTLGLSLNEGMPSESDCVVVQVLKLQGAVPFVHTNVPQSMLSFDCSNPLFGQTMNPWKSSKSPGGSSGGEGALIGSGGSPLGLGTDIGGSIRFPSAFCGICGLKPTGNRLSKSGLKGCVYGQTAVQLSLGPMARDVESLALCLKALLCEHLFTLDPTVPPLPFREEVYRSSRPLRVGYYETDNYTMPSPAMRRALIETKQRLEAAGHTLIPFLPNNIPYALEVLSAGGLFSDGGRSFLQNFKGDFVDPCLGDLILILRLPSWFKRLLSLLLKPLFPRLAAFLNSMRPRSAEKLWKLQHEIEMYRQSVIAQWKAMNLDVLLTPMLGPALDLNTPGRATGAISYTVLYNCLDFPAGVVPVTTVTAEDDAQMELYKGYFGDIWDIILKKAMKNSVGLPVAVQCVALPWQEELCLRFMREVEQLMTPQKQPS
# EXPERIMENT: Inhibition of FAAH-mediated [3H]anandamide hydrolysis in rat brain homogenate assessed as [3H]ethanolamine production at 0.1 nM incubated for 60 mins prior to substrate addition measured after 10 mins by liquid scintillation counting analysis relative to control
# Assay type: tissue-based
REPORTED_METRIC: inhibition (%)
I only need the number, in %, no unit after it.

// below: answered molecules
The reported inhibition of the molecule CN1CCC(NC(=O)Oc2ccc(O)c(-c3ccccc3)c2)CC1 was 2

Recorded result, O=C(NC1CCC1)Oc1ccc(O)c(-c2ccccc2)c1 , inhibition: -0.1

Query CCCCCCNC(=O)Oc1cccc(C2=NCCO2)c1 yields inhibition of 9

Further cases:
Entry CCCCCCNC(=O)Oc1ccc(O)c(-c2ccccc2)c1 ; inhibition = 9

Summary for this molecule, O=C(NC1CCCCC1)Oc1ccc(O)c(-c2ccccc2)c1 : inhibition is -2

inhibition measured on CN1CCC(NC(=O)Oc2cccc(C3=NCCO3)c2)CC1 = 6

# inhibition (molecule: O=C(NC1CCCC1)Oc1cccc(C2=NCCO2)c1 ) is -2

Item: O=C(NC1CCCCC1)Oc1cccc(C2=NCCO2)c1 | inhibition: 0.2

So, CN1CCC(NC(=O)Oc2cccc(-c3ccccc3)c2)CC1 ? Its inhibition was 6

// field: inhibition; key: O=C(NC1CCCC1)Oc1ccc(O)c(-c2ccccc2)c1 ; value = -8

###

# EXPERIMENT: Half life in URB597-pretreated Sprague-Dawley rat brain parenchyma at 0.3 to 0.8 nmol, iv administered 30 mins after […]-treatment
# Assay type: ADME, organism-based
REPORTED_METRIC: half-life (min)
The reply should contain only the number, in min.

So, O=[11C](NC1CCCCC1)Oc1ccc(O)c(-c2ccccc2)c1 ? Its half-life was 6.6

# ---- query molecule ----
Please fill in: half-life reported for O=[11C](NC1CCCC1)Oc1ccc(O)c(-c2ccccc2)c1 = 5.5

###

The following compounds are listed with their measured logD values.
# EXPERIMENT: 1-octanol-phosphate buffer partition coefficient, log D of the compound at pH 7.4
# Type: physicochemical
# ASSAY_CONDITIONS: octanol/water
Please state the value as a number alone, without comment.

Sample CCCCCCNC(=O)Oc1ccc(O)c(-c2ccccc2)c1 ; logD observed: 3.67

Sample O=C(NC1CCCCC1)Oc1ccc(O)c(-c2ccccc2)c1 ; logD observed: 2.85

According to the records, this compound NC(=O)c1cccc(-c2cccc(OC(=O)NC3CCCCC3)c2)c1 displays logD of 3.61

Next:
Recorded result, CCCCCCNC(=O)Oc1cccc(C2=NCCO2)c1 , logD: 3.33

Value of logD reported for the compound O=C(NC1CCC1)Oc1ccc(O)c(-c2ccccc2)c1 is 3.42

Data point: O=C(NC1CCCCC1)Oc1cccc(C2=NCCO2)c1 ; logD = 3.01

For this compound ( O=C(NC1CCCC1)Oc1cccc(C2=NCCO2)c1 ), measured logD is 2.35

The reported value for O=C(NC1CCCC1)Oc1ccc(O)c(-c2ccccc2)c1 in terms of logD is 2.8

###

# System: Cortex
# EXPERIMENT: Biodistribution in Sprague-Dawley rat brain cortex at 0.3 to 0.8 nmol, iv after 2 mins by gamma counting analysis
# Assay type: ADME, organism-based
# ASSAY_CONDITIONS: in vivo
Let's look at some molecules and their measured SUV.
Enter a number only.

Examples with answers:
Per the records, this molecule ( NC(=O)c1cccc(-c2cccc(O[11C](=O)NC3CCCCC3)c2)c1 ) has SUV equal to 0.79

Reported SUV of CCCCCCN[11C](=O)Oc1ccc(O)c(-c2ccccc2)c1 : 1.63

Data point: O=[11C](NC1CCCC1)Oc1ccc(O)c(-c2ccccc2)c1 ; SUV = 2.36

Form field SUV, entry O=[11C](NC1CCC1)Oc1ccc(O)c(-c2ccccc2)c1 : 2.68

Here's the next entry for you.
Record summary for O=[11C](NC1CCCCC1)Oc1ccc(O)c(-c2ccccc2)c1 : reported SUV = 2.4

###

Measured inhibition values are reported for all entries that follow.
# SYSTEM: UniProt:P97612
# EXPERIMENT: Inhibition of FAAH-mediated [3H]anandamide hydrolysis in rat brain homogenate assessed as [3H]ethanolamine production at 10 nM incubated for 60 mins prior to substrate addition measured after 10 mins by liquid scintillation counting analysis relative to control
# Format: tissue-based
Write it as a number; the unit % goes unstated.

Value sought: inhibition, system UniProt:P97612, item CN1CCC(NC(=O)Oc2cccc(-c3ccccc3)c2)CC1 . Result: 6

Param item: CCCCCCNC(=O)Oc1cccc(C2=NCCO2)c1 ; param system: UniProt:P97612; output inhibition: 100

Record CCCCCCNC(=O)Oc1ccc(O)c(-c2ccccc2)c1 ; system UniProt:P97612; inhibition = 97

Known value: UniProt:P97612 inhibition of the molecule O=C(NC1CCC1)Oc1ccc(O)c(-c2ccccc2)c1 equals 70

***
Form field inhibition for item O=C(NC1CCCCC1)Oc1ccc(O)c(-c2ccccc2)c1 on UniProt:P97612: 69

// assay UniProt:P97612, entry CN1CCC(NC(=O)Oc2ccc(O)c(-c3ccccc3)c2)CC1 , inhibition value = 1

Item O=C(NC1CCCC1)Oc1ccc(O)c(-c2ccccc2)c1 was tested on UniProt:P97612; the reported inhibition is 80

Reading of inhibition for O=C(NC1CCCC1)Oc1cccc(C2=NCCO2)c1 with UniProt:P97612: 40

UniProt:P97612 assay, molecule O=C(NC1CCCCC1)Oc1cccc(C2=NCCO2)c1 , recorded inhibition = 97

Record CN1CCC(NC(=O)Oc2cccc(C3=NCCO3)c2)CC1 ; system UniProt:P97612; inhibition = 3

###

# EXPERIMENT: Half life in phosphate buffer at pH 7.4 by HPLC analysis
# Type: physicochemical
Measured log10 t1/2 values are reported for all entries that follow.
Give log10 of t1/2, with t1/2 taken in h.

In the examples that follow, each entry is paired with its recorded log10 t1/2.
// recorded log10 t1/2 for O=C(NC1CCCC1)Oc1cccc(C2=NCCO2)c1 : 0.66

The reported value for NC(=O)c1cccc(-c2cccc(OC(=O)NC3CCCCC3)c2)c1 in terms of log10 t1/2 is 1.28

The molecule identified as CN1CCC(NC(=O)Oc2ccc(O)c(-c3ccccc3)c2)CC1 registered its log10 t1/2 at 1.40

log10 t1/2 reading for O=C(NC1CCCCC1)Oc1cccc(C2=NCCO2)c1 : 0.71

log10 t1/2 measured on O=C(NC1CCCC1)Oc1ccc(O)c(-c2ccccc2)c1 = 2.14

***
Record O=C(NC1CCC1)Oc1ccc(O)c(-c2ccccc2)c1 , field log10 t1/2: 1.95

Just so you know, measured log10 t1/2 for CCCCCCNC(=O)Oc1ccc(O)c(-c2ccccc2)c1 came out at 1.89
